System: U251 CNS
Assay: NCI-60 one-dose screen, 48 h (100 = growth as untreated, 0 = no growth, -100 = all killed)
Details: 10 µM unless noted
The panel holds about 83,000 compounds, 20% with a hit somewhere; the sample as a whole holds those more often.
Binary call on growth with cut-off 50%: strictly below means yes (1), and equality or higher means no (0).

input: In the record for C=C(C)[C@@H]1CC[C@]2(COS(C)(=O)=O)CC[C@]3(C)[C@H](CC[C@@H]4[C@@]5(C)CCCNC(C)(C)[C@@H]5CC[C@]43C)[C@@H]12 , is growth less than 50%?
output: yes (1)

input: In the record for COc1cc(/C=N/Nc2ccnc3cc(Cl)ccc23)cc(OC)c1O , is growth less than 50%?
output: yes (1)

input: In the record for O=C1/C(=C/c2ccccc2[N+](=O)[O-])Oc2ccc(O)cc21 , is growth less than 50%?
output: no (0)

input: In the record for CNC(=O)c1cc(Oc2ccc3nc(NC(=O)c4cc(C)cc(C)c4)sc3c2)ccn1 , is growth less than 50%?
output: no (0)

input: In the record for COc1cnc2c(c1)C(=O)c1c-2n(CCCn2ccnc2)c(=O)c2cc(OC)c(OC)cc12 , is growth less than 50%?
output: yes (1)

input: In the record for COc1ccc(-c2cc(-c3ccc(Cl)cc3)nc3nc(N)nn23)cc1 , is growth less than 50%?
output: no (0)

input: In the record for COc1ccc(Cn2cc3c(c2-c2ccccc2)CCCc2cnoc2-3)cc1[N+](=O)[O-] , is growth less than 50%?
output: no (0)

input: In the record for C=C(C)[C@@H]1CC[C@]2(C)[C@H](CC=C3[C@@H]4CC(C)(C)CC[C@]4(C(=O)NCC#CCN4CCN(C)CC4)CC[C@]32C)[C@@]1(C)CCC#N , is growth less than 50%?
output: no (0)
